Value source: the supplement of paper PMC9170038

# apparent KD of MS2 coat protein per entry
- Test system: MS2 coat protein
- assay.text: apparent KD of MS2 coat protein; designed switch direction (-1 OFF switch, 1 ON switch): -1; higher = weaker reporter binding
- conditions.used: input ligand: FMN 200 uM

[
  {
    "sequence.input": "CGAUGUGGAGUGAGGAUAUCGUGUUCGAAAGAACGUGAGAAGGCACAUGAGGAUCACCCAUGUGAUUCACGUCG [Omei Ex4B A6] (Eterna round: R97, puzzle: Brourd's mod of Exclusion 4)",
    "apparent KD of MS2 coat protein": "28 nM"
  },
  {
    "sequence.input": "UCUGGUCGAGGAUAUACAUGAGGAUCACCCAUGUGGUCACGUGACUUCGGUCACGAAUGUAGAAGGCGACCAGA [E3/3-A6] (Eterna round: R97, puzzle: Exclusion 3)",
    "apparent KD of MS2 coat protein": "26.7 nM"
  },
  {
    "sequence.input": "UUAAUUAAUGUGAGGAUAUCUAGAGCCUCGGCUCUAGAGAAGGCACAUGAGGAUCACCCAUGUCUCAAUUAAUU [BmEx4/2-E2] (Eterna round: R97, puzzle: Brourd's mod of Exclusion 4)",
    "apparent KD of MS2 coat protein": "33.9 nM"
  },
  {
    "sequence.input": "AAAUUGUGAGGAUAUUCGUAGUACACGGAGACGUGUAUUACGGAGAAGGCACAUGAGGAUCACCCAUGUUCCUU [jl-ex4-13 Eli mod] (Eterna round: R97, puzzle: Exclusion 4)",
    "apparent KD of MS2 coat protein": "103 nM"
  },
  {
    "sequence.input": "GUAACAACUAGAGGAUAUCAGCACGUUUAGUGCUGAGAAGGCUAGAGUUACAUGAGGAUCACCCAUGUCUAGAGAUCAUUAAUU [ENG1/13-A2] (Eterna round: R96, puzzle: Exclusion NG 1)",
    "apparent KD of MS2 coat protein": "177 nM"
  }
]

----------
- Tested on: MS2 coat protein
- assay.text: apparent KD of MS2 coat protein; designed switch direction (-1 OFF switch, 1 ON switch): -1; higher = weaker reporter binding
- conditions.used: input ligand: FMN 200 uM
Use 40 nM as the dividing line for apparent KD of MS2 coat protein, with the line itself on the class 1 side and lower values as class 0.

[
  {
    "sequence.input": "GCAGGUCGAGGAUAUACAUGAGGAUCACCCAUGUUGAUCAAGCGACUUCGGUCGCAAUGUAGAAGGCGACCUGC [E3/7-A6] (Eterna round: R97, puzzle: Exclusion 3)",
    "assigned.label": "class 1"
  },
  {
    "sequence.input": "CUGUGCACGCUGCGGUCCUACAUGAGGAUCACCCAUGUGGUCUGGUGGCGUGGGUCACCGGACUUGGCUCGUCUUGA [salish99_S_TOV1_R5_065] (Eterna round: R97, puzzle: Sensor, turn-off variant 1)",
    "assigned.label": "class 1"
  },
  {
    "sequence.input": "GGUGUACUAGUCAGGAUAUGAUUAAUACCAAAGAAUCAGAAGGGACAUGAGGAUCACCCAUGUAAAGAAGGAGA [BmEX4 A.23] (Eterna round: R97, puzzle: Brourd's mod of Exclusion 4)",
    "assigned.label": "class 1"
  },
  {
    "sequence.input": "AGUACUAUCACGAAAGUGAUAGUACAAUAAGCAAGUGAAACAUGAGGAUCACCCAUGUCCUCAUUUGCUCGUCUUAU [JL turnoff v2 74] (Eterna round: R96, puzzle: Sensor v2, turn-off variant 2)",
    "assigned.label": "class 0"
  },
  {
    "sequence.input": "AAACCCUGAGGAUAUACAUAACAACAAACCCUCACGUGCCAACAUGAGGAUCACCCAUGUAGAAGGCAGGCCAA [Mod R3 Insanara 6 - Jieux - Exclusion 2] (Eterna round: R97, puzzle: Exclusion 2)",
    "assigned.label": "class 1"
  }
]

----------
- Tested on: MS2 coat protein
- assay.text: apparent KD of MS2 coat protein; designed switch direction (-1 OFF switch, 1 ON switch): -1; higher = weaker reporter binding
- conditions.used: Eterna round: R95; input ligand: microRNA oligo, concentration not stated
experimental.endpoint: apparent KD of MS2 coat protein

[
  {
    "sequence.input": "GGUUAUUGCAAGGAUAUGCUUUUUUUUUAUAUUGCAGAAGGUGCAACAUGAGGAUCACCCAUGUUGGAGGGUUU [JR_E6_Sub022] (puzzle: Exclusion 6)",
    "experimental.endpoint": "apparent KD of MS2 coat protein",
    "measured.result": "26 nM"
  },
  {
    "sequence.input": "GUGCAAUGAGGAUAUACGUAGGUGAACAUCUGUGUGCUCCUACAUGAGGAUCACCCAUGUAGAAGGCAUGUCAC [LRO-Excl2-17] (puzzle: Exclusion 2)",
    "experimental.endpoint": "apparent KD of MS2 coat protein",
    "measured.result": "13.1 nM"
  },
  {
    "sequence.input": "UUUUAGAGAGGAUAUAUAAAGUGAAACAUGAGGAUCACCCAUGUAAUUUUAUGGAUGUAAAUAGAAGGCUCAUUUA [JL-ex5-3.01] (puzzle: Exclusion 5)",
    "experimental.endpoint": "apparent KD of MS2 coat protein",
    "measured.result": "34.3 nM"
  },
  {
    "sequence.input": "AACGACUGAGGAUAUACAUGAGGAUCACCCAUGUGUUGAAAUACGUGCUUGGUUAACUGUAGAAGGCAGAAAAU [Isxeen] (puzzle: Exclusion 3)",
    "experimental.endpoint": "apparent KD of MS2 coat protein",
    "measured.result": "12.8 nM"
  },
  {
    "sequence.input": "UUUUUGUGAGGAUAUCAGUAGUAAAAAAAUAAAAUUACUACUGAGAAGGCACAUGAGGAUCACCCAUGUUCCUU [salish99_ex4_r3_011] (puzzle: Exclusion 4)",
    "experimental.endpoint": "apparent KD of MS2 coat protein",
    "measured.result": "14.5 nM"
  },
  {
    "sequence.input": "AAGAAACAUGAGGAUCACCCAUGUGAGGAUAUGAAAAAGAAAAGAAAAGAAAGAAGAAUCAGAAGGCACAAAGC [salish99-ex1_r3_090] (puzzle: Exclusion 1)",
    "experimental.endpoint": "apparent KD of MS2 coat protein",
    "measured.result": "28.6 nM"
  },
  {
    "sequence.input": "CCUCUACAUGAGGAUCACCCAUGUGAGGAUAUCUCGGAGCAGCCAAUUAAAGCGCUCCAGAGAAGGCACGUGUA [Inesraar] (puzzle: Exclusion 1)",
    "experimental.endpoint": "apparent KD of MS2 coat protein",
    "measured.result": "19.4 nM"
  },
  {
    "sequence.input": "CUAGAUCUUCGGAUCUAGUACAUGAGGAUCACCCAUGUGACGAGUUACAUGAAAAACAAGCUUUUUGCUCGUCUUAU [Sensor v3 - Turn-off variant 1 - 8] (puzzle: Sensor v3, turn-off variant 1)",
    "experimental.endpoint": "apparent KD of MS2 coat protein",
    "measured.result": "102 nM"
  },
  {
    "sequence.input": "UAUUAACAAGUAAGAUCCCACAUGAGGAUCACCCAUGUGCUCGUCUUAUAAGGUACUGUGACGAAAGUCACGGUACC [Sensor 3, v1 - 87] (puzzle: Sensor v3, turn-off variant 1)",
    "experimental.endpoint": "apparent KD of MS2 coat protein",
    "measured.result": "953 nM"
  },
  {
    "sequence.input": "GUGAAGGUAGGAUAUACGAUAAUAUAGGGUAGAUAUAUAACACAUGAGGAUCACCCAUGUAGAAGGACCAAGUG [Mat - Exclusion 2 - Mod of my Tesla design - D61] (puzzle: Exclusion 2)",
    "experimental.endpoint": "apparent KD of MS2 coat protein",
    "measured.result": "46 nM"
  },
  {
    "sequence.input": "AAAAGAUGAGGAUAUAUAUGGAAUCCAAGGCAUGUGCUCUCACAUGAGGAUCACCCAUGUAGAAGGCAUCUGCC [Laxetera] (puzzle: Exclusion 2)",
    "experimental.endpoint": "apparent KD of MS2 coat protein",
    "measured.result": "9.79 nM"
  }
]

----------
- Tested on: MS2 coat protein
- assay.text: apparent KD of MS2 coat protein; designed switch direction (-1 OFF switch, 1 ON switch): 1; higher = weaker reporter binding
- conditions.used: input ligand: FMN 200 uM
Could you label it Criterion met if measured apparent KD of MS2 coat protein is 100 nM or higher, and Criterion not met otherwise?

[
  {
    "sequence.input": "CUGCUCGGGUGAGGAUAUGCCGCCGUUUCGGCUGCAGAAGGUGCUACGUUACAUGAGGAUCACCCAUGUCUCUGUUGUUUCGUC [salish99_SSNG1_r04_967] (Eterna round: R96, puzzle: Same State NG 1)",
    "assigned.label": "Criterion not met"
  },
  {
    "sequence.input": "GUUACAUGAGGAUCACCCAUGUAUGUGUGGGAGUAAGUGUCUUAGGAUAUCUAUUAUUUAAUUGAAGAGAAGGAAGAUUGUUGU [JMF's solution 26] (Eterna round: R96, puzzle: Same State NG 3)",
    "assigned.label": "Criterion met"
  },
  {
    "sequence.input": "GGUCCAGCGAGAGCUGGACAAAAGCAUGUACAUGAGGAUCACCCAUGUCAUGUACAAGCUUUUUGCUCGUCUUAAAA [Mat - Sensor - JL mod - D88] (Eterna round: R96, puzzle: Sensor for hsa-mir-208a)",
    "assigned.label": "Criterion met"
  },
  {
    "sequence.input": "GGUCGGACUCACAUGAGGAUCACCCAUGUUGCGGAAACGCGACAGGAUAUCUGUCCGAAAAGGUCAGAGAAGGGUCAACCGACC [Fiskers NG3ss - 58] (Eterna round: R96, puzzle: Same State NG 3)",
    "assigned.label": "Criterion met"
  },
  {
    "sequence.input": "GUUCCAAGGUGAGGAUAUGCAGAGGAUCACCCUGUAGAAGGCAUCAGGUGAGGAUAUGCAGAGGAUCACCCUGUAGAAGGCAUC [pwkr ssNG DX.10] (Eterna round: R96, puzzle: Same State NG 1)",
    "assigned.label": "Criterion met"
  },
  {
    "sequence.input": "GUGGUCCUCACAGGAUAUCAGCGGCCUUCACGCUGAGAAGGGUGACUGGGCUACAAGGCUAUAGACAUGAGGAUCACCCAUGUA [Direbe] (Eterna round: R96, puzzle: Same State NG 1)",
    "assigned.label": "Criterion met"
  },
  {
    "sequence.input": "UGUACAUGAGGAUCACCCAUGUCUAGACAUGUUAAUAUAAUGUAGGAUAUAUAAUAUUUAAAUUAAUAGAAGGACAAUUUUUUU [JMF's solution 3] (Eterna round: R96, puzzle: Same State NG 3)",
    "assigned.label": "Criterion met"
  },
  {
    "sequence.input": "UUUACUUUCAUAGGAUAUCAUGCGAAAAUUGCGUGAGAAGGGUGCACACUGUCUUUCUCGGAGUACAUGAGGAUCACCCAUGUG [SameState NG1 #67] (Eterna round: R96, puzzle: Same State NG 1)",
    "assigned.label": "Criterion not met"
  }
]
